EXPERIMENTAL TARGET: human GLP-1 receptor (Homo sapiens)
Construct: expressed in transfected cells
ASSAY DETAILS: GLP-1R cAMP Assay
Type: cell-based
SETUP CONDITIONS: cAMP accumulation in CHO cells stably overexpressing the human GLP-1 receptor; 30 min treatment; HitHunter cAMP kit; read-out: EC50
pEC50: −log10 of the molar value.
List of pEC50 values.
ASSAY ENDPOINT: pEC50

> print(dat)
                                   molecule  assay.endpoint  observed.result
1  O=C(O)c1cc(F)c2nc(CN3CCC(Oc4ccnc(COc5ccc(C(F)F)cc5F)n4)CC3)n(C[C@@H]3CCO3)c2c1 [Compound 312]           pEC50           > 7.30
2  O=C(O)c1ccc2nc(CN3CCC(Oc4ccnc(COc5ccc(F)cc5Cl)c4)CC3)n(C[C@@H]3CCO3)c2c1 [Example 220]           pEC50           > 7.30
3  CN(c1cc(C(=O)N2CCN(Cc3nc4ccc(C(=O)O)cc4n3C[C@@H]3CCO3)CC2)ncn1)C1CCCCC1 [Example 61]           pEC50           < 6.30
4  N#Cc1ccc(OCc2ccc(F)c(OC3CCN(Cc4nc5ccc(C(=O)O)cc5n4C[C@@H]4CCO4)CC3)n2)c(F)c1 [Example 330]           pEC50           > 7.30

---

List of pEC50 values.
EXPERIMENTAL TARGET: human GLP-1 receptor (Homo sapiens, UniProt P43220)
Construct: expressed in transfected cells
Sequence (P43220 24-463): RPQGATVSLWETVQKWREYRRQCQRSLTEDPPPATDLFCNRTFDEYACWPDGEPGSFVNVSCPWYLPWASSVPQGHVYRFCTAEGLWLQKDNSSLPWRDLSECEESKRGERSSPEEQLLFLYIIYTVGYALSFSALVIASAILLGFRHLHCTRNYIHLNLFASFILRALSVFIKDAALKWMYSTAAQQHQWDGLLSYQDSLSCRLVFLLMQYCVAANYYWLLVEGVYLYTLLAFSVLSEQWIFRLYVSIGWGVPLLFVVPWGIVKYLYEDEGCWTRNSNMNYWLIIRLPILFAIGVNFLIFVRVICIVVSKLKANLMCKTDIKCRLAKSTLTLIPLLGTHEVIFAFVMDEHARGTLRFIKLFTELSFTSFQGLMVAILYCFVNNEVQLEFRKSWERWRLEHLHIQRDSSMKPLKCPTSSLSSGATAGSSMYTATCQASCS
ASSAY DETAILS: GLP-1R cAMP Assay
Type: cell-based
SETUP CONDITIONS: cAMP accumulation in CHO cells stably overexpressing the human GLP-1 receptor; 30 min treatment; HitHunter cAMP kit; read-out: EC50
pEC50: −log10 of the molar value.
ASSAY ENDPOINT: pEC50

> print(dat)
                                    compound  observed.result
 1  CCn1cncc1Cn1c(CN2CCC(Cc3cnc(COc4ccc(Cl)cc4Cl)o3)CC2)nc2ccc(C(=O)O)nc21           > 7.30
 2  CCn1cncc1Cn1c(CN2CCC(C(F)c3cccc(COc4ccc(C)cc4Cl)c3)CC2)nc2ccc(C(=O)O)cc21 (racemic)           > 7.30
 3  O=C(O)c1ccc2nc(CN3CCC(Oc4ccnc(COc5cc(F)c(F)cc5F)n4)CC3)n(C[C@@H]3CCO3)c2c1           > 7.30
 4  CCn1cncc1Cn1c(CN2CCN(C(=O)c3cccc(COc4ccc(C)cc4Cl)c3)CC2)nc2ccc(C(=O)O)cc21     6.30 to 7.30
 5  O=C(O)c1ccc2nc(CN3CCC(Oc4ccccc4COc4ccc(Cl)cc4Cl)CC3)n(C[C@@H]3CCO3)c2c1           < 6.30
 6  Clc1ccc(COc2cccc(C3=CCN(Cc4ccc(-c5nn[nH]n5)nc4)CC3)n2)c(Cl)c1     6.30 to 7.30
 7  O=C(c1ccc(-c2nnn[nH]2)nc1)N1CCN(Cc2ccc(COc3ccc(Cl)cc3Cl)o2)CC1           < 6.30
 8  O=C(O)c1ccc2nc(CN3CCC(Oc4ccnc(COc5ccc(C(F)(F)F)cc5F)n4)CC3)n(C[C@@H]3CCO3)c2n1           > 7.30
 9  CN(c1ccccc1)c1cc(C(=O)N2CCN(Cc3nc4ccc(C(=O)O)cc4n3C[C@@H]3CCO3)CC2)ncn1           < 6.30
10  O=C(O)c1ccc2nc(CN3CCC(Oc4ccnc(COc5ccc(Cl)cc5F)c4)CC3)n(C[C@@H]3CCO3)c2c1           > 7.30
11  Cc1ccc(C(C)c2cccc(C(=O)N3CCN(Cc4nc5ccc(C(=O)O)cc5n4C[C@@H]4CCO4)CC3)c2)c(Cl)c1 (some centres unmarked)     6.30 to 7.30
12  CCn1cncc1Cn1c(CN2CC[C@H](Cc3cnc(COc4ccc(Cl)cc4Cl)o3)C[C@@H]2C)nc2ccc(C(=O)O)cc21           > 7.30
13  Cc1ccc(N(C)c2cccc(CC3=CCN(Cc4nc5ccc(C(=O)O)cc5n4C[C@@H]4CCO4)CC3)c2)c(Cl)c1     6.30 to 7.30
14  CCn1cncc1Cn1c(CN2CCC(Oc3cccc(COc4ccc(Cl)cc4C#N)c3)CC2)nc2ccc(C(=O)O)cc21           > 7.30
